# Measurement description: In vivo pharmacokinetic experiment, oral and subcutaneous administration
# Parameters: species or system male SD (Sprague Dawley) rats
# Cond: SCD, subcutaneous silica hydrogel composite #29HG depot 35 mg/kg, 10 d experiment
Where a name gives a salt, the structure may show the parent alone.
Attribute measured: AUClast/D
A bare number is not enough; add the unit after it.

Any idea what AUClast/D was measured for O=C1CN2Cc3c(ccc(Cl)c3Cl)N=C2N1 [Anagrelide HCl, Anagrelide hydrochloride] ?
21.4 ng·h/mL per mg/kg

* * *

# Measurement description: In vivo pharmacokinetic experiment, oral and subcutaneous administration
# Design: species or system male SD (Sprague Dawley) rats
# Cond: male, Sprague-Dawley, rat, plasma, sc, 35 mg/kg, SCC, subcutaneous silica hydrogel composite #29HG depot 35 mg/kg, 12 h experiment
Structures can show the parent of a compound that is named as a salt.
Attribute measured: Tmax (min)
Hi! Could you send only the number? It should be in min, unit omitted.

Any idea what Tmax was measured for O=C1CN2Cc3c(ccc(Cl)c3Cl)N=C2N1 [Anagrelide HCl, Anagrelide hydrochloride] ?
48
